These compounds were tested on STAT1 SH2 domain (Homo sapiens, UniProt P42224); pIC50 is the recorded read-out.
Sequence (P42224 whole entry, the tested form may be a part): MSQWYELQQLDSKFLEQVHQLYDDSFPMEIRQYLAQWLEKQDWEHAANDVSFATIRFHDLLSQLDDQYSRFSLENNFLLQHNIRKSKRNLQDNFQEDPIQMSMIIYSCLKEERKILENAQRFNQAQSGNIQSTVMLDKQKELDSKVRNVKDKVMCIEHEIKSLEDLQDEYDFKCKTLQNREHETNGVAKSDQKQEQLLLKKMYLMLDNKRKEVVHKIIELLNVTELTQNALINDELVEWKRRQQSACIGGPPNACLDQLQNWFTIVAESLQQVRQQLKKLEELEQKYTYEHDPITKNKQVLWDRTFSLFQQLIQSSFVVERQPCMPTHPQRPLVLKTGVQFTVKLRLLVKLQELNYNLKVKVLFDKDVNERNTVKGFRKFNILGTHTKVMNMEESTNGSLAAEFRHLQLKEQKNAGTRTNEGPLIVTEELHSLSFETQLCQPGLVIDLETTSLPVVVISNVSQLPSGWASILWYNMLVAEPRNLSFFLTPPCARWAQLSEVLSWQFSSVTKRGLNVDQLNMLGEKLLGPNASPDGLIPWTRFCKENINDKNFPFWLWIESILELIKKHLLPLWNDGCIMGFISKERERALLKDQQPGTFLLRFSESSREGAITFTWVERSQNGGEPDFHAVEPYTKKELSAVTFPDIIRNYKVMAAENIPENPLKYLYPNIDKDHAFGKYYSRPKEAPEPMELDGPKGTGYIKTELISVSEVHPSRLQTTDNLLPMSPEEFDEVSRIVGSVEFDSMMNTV
Scale: negative log10 of molar concentration, which is what pIC50 denotes.

COMPOUND	TEST RESULT
CC(C)(C)c1ccc2occ(/C=N/NC(=O)c3ccco3)c(=O)c2c1 [Compound 17]	4.31
CC(C)(C)c1ccc2occ(/C=N/NC(=O)c3ccc(O)cc3)c(=O)c2c1 [Compound 14]	4.11
CCC(C)(C)c1ccc2occ(C=O)c(=O)c2c1 [Compound 9a]	4.97
CC(C)(C)c1ccc2occ(/C=N/NC(=O)c3cccnc3)c(=O)c2c1 [Compound 8]	4.62

Let us move to another entry and its pIC50.
Entry CC(C)c1ccc2occ(/C=N/NC(=O)c3cccnc3)c(=O)c2c1 [Compound 7] , tested on STAT1 SH2 domain (Homo sapiens, UniProt P42224), has a reported pIC50 of 4.41

###

- TARGET ENTITY: Lck SH2 (Homo sapiens)
- Construct: STAT1: 400 nM, STAT3: 210 nM, STAT5b: 300 nM, Lck SH2: 35 nM
- Sequence (P06239 127-224 limits assumed): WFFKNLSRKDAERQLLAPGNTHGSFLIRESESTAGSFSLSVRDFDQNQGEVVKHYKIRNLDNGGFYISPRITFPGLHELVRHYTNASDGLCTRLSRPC
- ASSAY REMARKS: FP-based competitive binding assay, Lck SH2 domain
PROPERTY LABEL: inhibition at 80 µM (%)
Write the value in % as a bare number.

Use the examples below as a reference point.
O=C(N/N=C/c1coc2ccc(Cl)cc2c1=O)c1cccnc1 6
O=C(N/N=C/c1coc2ccc([N+](=O)[O-])cc2c1=O)c1cccnc1 22
O=C(N/N=C/c1coc2ccc(Br)cc2c1=O)c1cccnc1 13

Let us move to another entry and its inhibition at 80 µM.
Record COc1ccc2occ(/C=N/NC(=O)c3cccnc3)c(=O)c2c1 . Reported inhibition at 80 µM: 23

###

- TARGET ENTITY: STAT3 SH2 domain (Homo sapiens, UniProt P40763)
- Sequence (P40763 whole entry, the tested form may be a part): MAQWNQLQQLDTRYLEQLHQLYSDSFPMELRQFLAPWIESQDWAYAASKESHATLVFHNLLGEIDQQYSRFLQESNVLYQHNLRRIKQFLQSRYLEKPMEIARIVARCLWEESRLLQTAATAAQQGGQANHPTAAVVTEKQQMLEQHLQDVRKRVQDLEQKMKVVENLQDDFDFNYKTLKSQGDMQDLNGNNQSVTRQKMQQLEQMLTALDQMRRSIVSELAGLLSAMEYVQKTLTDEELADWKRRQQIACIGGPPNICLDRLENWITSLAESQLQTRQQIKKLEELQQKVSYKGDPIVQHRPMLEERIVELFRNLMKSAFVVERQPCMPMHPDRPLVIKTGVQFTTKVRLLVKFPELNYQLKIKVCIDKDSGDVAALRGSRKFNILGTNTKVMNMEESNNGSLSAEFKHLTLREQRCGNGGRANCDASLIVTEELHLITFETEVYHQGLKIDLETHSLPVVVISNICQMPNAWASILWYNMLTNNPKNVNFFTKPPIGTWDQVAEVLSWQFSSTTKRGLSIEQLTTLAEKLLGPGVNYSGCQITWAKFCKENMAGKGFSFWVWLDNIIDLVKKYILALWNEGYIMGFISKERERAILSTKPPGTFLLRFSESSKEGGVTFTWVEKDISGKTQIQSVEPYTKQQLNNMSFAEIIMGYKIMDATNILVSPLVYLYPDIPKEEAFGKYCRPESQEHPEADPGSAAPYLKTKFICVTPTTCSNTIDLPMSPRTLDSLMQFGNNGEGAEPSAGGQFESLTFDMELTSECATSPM
- ASSAY REMARKS: FP-based competitive binding assay, STAT3 SH2 domain
- ASSAY CONDITIONS: 1 h with protein, then 1 h with peptide, mean ± s.d., three experiments, read-out: STAT3 app. IC50
PROPERTY LABEL: IC50
Write the quantity with the unit trailing the number.

Use the examples below as a reference point.
COMPOUND	TARGET ENTITY	TEST RESULT
COc1ccc2occ(/C=N/NC(=O)c3cccnc3)c(=O)c2c1 [Compound 11]	STAT3 SH2 domain (Homo sapiens, UniProt P40763)	65 µM
CC(C)(C)c1ccc2occ(/C=N/NC(=O)c3ccccc3)c(=O)c2c1 [Compound 13]	STAT3 SH2 domain (Homo sapiens, UniProt P40763)	14 µM
CCC(C)(C)c1ccc2occ(C=O)c(=O)c2c1 [Compound 9a]	STAT3 SH2 domain (Homo sapiens, UniProt P40763)	5.3 µM
CC(C)(C)c1ccc2occ(/C=N/NC(=O)c3cccnc3)c(=O)c2c1 [Compound 8]	STAT3 SH2 domain (Homo sapiens, UniProt P40763)	9.7 µM
CC(C)c1ccc2occ(/C=N/NC(=O)c3cccnc3)c(=O)c2c1 [Compound 7]	STAT3 SH2 domain (Homo sapiens, UniProt P40763)	22 µM
CC(C)(C)c1ccc2occ(/C=N/NC(=O)c3ccc(O)cc3)c(=O)c2c1 [Compound 14]	STAT3 SH2 domain (Homo sapiens, UniProt P40763)	19 µM

Record O=C(N/N=C/c1coc2ccc(Cl)cc2c1=O)c1cccnc1 [Compound 3] . Reported IC50: 40 µM

Record CC(C)(C)c1ccc2occ(/C=N/NC(=O)c3ccco3)c(=O)c2c1 [Compound 17] . Reported IC50: 14 µM

Record O=C(N/N=C/c1coc2ccc(Br)cc2c1=O)c1cccnc1 [Compound 4] . Reported IC50: 25 µM

Record CC(C)(C)c1ccc2occ(/C=N/NC(=O)c3ccc[nH]3)c(=O)c2c1 [Compound 19] . Reported IC50: 50 µM

Record CC(C)(C)c1ccc2occ(C=O)c(=O)c2c1 [Compound 8a] . Reported IC50: 8.9 µM

Record CC(C)(C)c1ccc2occ(/C=N/NC(=O)c3cccs3)c(=O)c2c1 [Compound 18] . Reported IC50: 39 µM

Record COc1ccc(C(=O)N/N=C/c2coc3ccc(C(C)(C)C)cc3c2=O)cc1 [Compound 15] . Reported IC50: 26 µM

// data source = paper PMC5727211
